All values here come from ChEMBL document CHEMBL4033656.

target desc: Mushroom tyrosinase (Agaricus bisporus, UniProt O42713+Q00024+C7FF04+C7FF05)
procedure summary: Inhibition of mushroom tyrosinase preincubated for 5 mins followed by addition of […] as substrate measured after 30 mins
measured quantity: log10 IC50 (log10 of the value in µM)

molecule	log10 IC50
COc1ccc(C2SCC(=O)N2c2ccc(-c3ccc(N4C(=O)CSC4c4ccc(OC)cc4)cc3)cc2)cc1 (stereo not drawn)	0.64
COc1cc(C2SCC(=O)N2c2ccc(-c3ccc(N4C(=O)CSC4c4ccc(O)c(OC)c4)c(C)c3)cc2C)ccc1O (stereo not drawn)	0.45
O=C1CSC(c2ccccc2O)N1c1ccc(-c2ccc(N3C(=O)CSC3c3ccccc3O)cc2)cc1 (stereo not drawn)	-0.21
O=C1CSC(c2ccc(O)cc2)N1c1ccc(-c2ccc(N3C(=O)CSC3c3ccc(O)cc3)cc2)cc1 (stereo not drawn)	2.53
O=C1CSC(c2ccccc2)N1c1ccc(-c2ccc(N3C(=O)CSC3c3ccccc3)cc2)cc1 (stereo not drawn)	1.33
Cc1cc(-c2ccc(N3C(=O)CSC3c3ccccc3)c(C)c2)ccc1N1C(=O)CSC1c1ccccc1 (stereo not drawn)	0.89
COc1cc(C2SCC(=O)N2c2ccc(-c3ccc(N4C(=O)CSC4c4ccc(O)c(OC)c4)cc3)cc2)ccc1O (stereo not drawn)	0.38
